- assayTarget: Human EphA2 (ephrin receptor A2) on cells (human, UniProt P29317 25-976)
- Sequence (P29317 25-976): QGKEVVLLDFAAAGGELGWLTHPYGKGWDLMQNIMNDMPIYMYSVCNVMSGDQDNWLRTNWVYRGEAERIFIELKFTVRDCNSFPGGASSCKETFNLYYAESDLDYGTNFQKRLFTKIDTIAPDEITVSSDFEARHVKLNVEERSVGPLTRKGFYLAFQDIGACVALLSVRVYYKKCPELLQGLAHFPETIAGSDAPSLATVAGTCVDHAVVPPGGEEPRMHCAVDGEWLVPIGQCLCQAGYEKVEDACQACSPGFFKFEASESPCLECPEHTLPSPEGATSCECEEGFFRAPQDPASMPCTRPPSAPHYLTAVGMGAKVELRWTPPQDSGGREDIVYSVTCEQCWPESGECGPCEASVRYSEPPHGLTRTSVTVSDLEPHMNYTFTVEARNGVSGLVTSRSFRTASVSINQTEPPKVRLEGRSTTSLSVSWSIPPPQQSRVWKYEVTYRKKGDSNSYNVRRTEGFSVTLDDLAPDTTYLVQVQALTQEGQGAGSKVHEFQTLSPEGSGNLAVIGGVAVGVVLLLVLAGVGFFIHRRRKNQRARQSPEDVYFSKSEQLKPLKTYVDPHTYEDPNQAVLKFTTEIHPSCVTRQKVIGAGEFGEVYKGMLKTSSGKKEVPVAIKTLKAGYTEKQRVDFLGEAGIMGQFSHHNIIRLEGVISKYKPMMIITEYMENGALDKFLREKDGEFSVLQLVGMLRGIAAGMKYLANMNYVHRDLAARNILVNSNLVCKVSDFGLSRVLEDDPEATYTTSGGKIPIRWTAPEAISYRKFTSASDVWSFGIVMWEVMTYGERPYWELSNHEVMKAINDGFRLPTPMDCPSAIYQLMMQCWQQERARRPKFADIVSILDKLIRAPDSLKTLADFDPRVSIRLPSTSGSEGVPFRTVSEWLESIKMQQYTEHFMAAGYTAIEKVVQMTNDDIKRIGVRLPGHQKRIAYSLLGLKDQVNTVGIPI
- assayDetails: cell-based or functional assay
measurementName: ADCC - EC50 (nM), Trial 1, A549
Entry rule: numbers only, all in nM.

// query Given AB-010691 (antibody, V domains shown) VH: QVQLQQWGAGLLKPSETLSLTCAVYGGSFSGYYWSWIRQPPGKGLEWIGEINHRGSINYNNYNPSLKSRVTISVDTSKNQFSLKLSSVTAADTAVYYCAKPLRPHCTNGVCYSGDAFDIWGQGTMVTVAS VL: SYVLTQPPSVSVAPGQTARITCRGNNIGSMNVHWYQQKPGQAPVLVVYDDSDRPSGIPERFSGSNSGNTATLTISRVEAGDEADYYCQVWDSSSDHVVFGGGTKLTVL , state its recorded ADCC - EC50 (nM), Trial 1, A549.
// result 2.2
